System: DLD-1
TEST_PROTOCOL: NCI tumour cell line growth inhibition, 48 h
Activity calls are given as the source filed them. No stated cut-off is given here; in the data, active = GI50 up to about 1.1 µM and inactive = higher.
In this section, each of the compounds is paired with its reported GI50.

>  <COMPOUND>
CCCn1c(SCCSc2c3ccccc3c(-c3nc(F)nc(F)n3)n2CCC)c2ccccc2c1-c1nc(F)nc(F)n1

>  <RESULT>
20.5 µM (inactive)

$$$$
>  <COMPOUND>
[N-]=[N+]=NC(CCl)c1cn([C@H]2C[C@H](O)[C@@H](CO)O2)c(=O)[nH]c1=O (some centres undefined)

>  <RESULT>
> 100 µM (inactive)

$$$$

Req: # GI50 lookup, item COc1cccc2c1C(=O)c1c(O)c3c(c(O)c1C2=O)C[C@@](O)(C(C)=O)C[C@@H]3OC1CC(N)C(O)C(C)O1 (some centres undefined)
Resp: 0.309 µM (active)

Req: # GI50 lookup, item O=S(O)CCCCSSCc1ccccc1CSSCCCCS(=O)O
Resp: 24.6 µM (inactive)

Req: # GI50 lookup, item Cc1cc(NS(=O)(=O)c2ccc(Nc3c4ccccc4nc4c(C(=O)N5CCN(CCO)CC5)cccc34)cc2)no1
Resp: > 100 µM (inactive)

Req: # GI50 lookup, item O=C1c2ccccc2C(=O)c2[nH]cnc21
Resp: 27 µM (inactive)

Req: # GI50 lookup, item C=C1C(C(=O)O)C1C(=O)O (centres undefined)
Resp: > 100 µM (inactive)

Req: # GI50 lookup, item Nc1ccccc1C(=O)NC(=O)Nc1ccc(Oc2ncc(Br)cn2)c(Cl)c1
Resp: < 0.01 µM (active)

Req: # GI50 lookup, item COC(=O)C(=O)C(C(=O)C(=O)Nc1ccc([N+](=O)[O-])cc1C#N)c1nc2ccc([N+](=O)[O-])cc2nc1O (centres undefined)
Resp: > 100 µM (inactive)
